Cited source: ChEMBL document CHEMBL1157988

System: Enterococcus faecium
Experiment: Antimicrobial activity against Enterococcus faecium
Assay type: functional
VALUE_TYPE: MIC
Returns: string containing the numeric result and its unit.

Could you please provide reported MIC for CC(C)C[C@@H]1NC(=O)[C@H](CCCN)NC(=O)[C@H](C(C)C)NC(=O)[C@H](Cc2c[nH]c3ccccc23)NC(=O)[C@H](CC(=O)O)NC(=O)[C@H](CC(N)=O)NC(=O)[C@@H](Cc2ccccc2)NC(=O)[C@H](Cc2ccccc2)NC(=O)[C@@H]2C[C@@H](O)CN2C(=O)[C@@H](Cc2ccc(O)cc2)NC1=O ? Thanks!
8 µg/mL

###

I'd appreciate it if you could supply MIC values for the items below.
System: Candida albicans
Test: Antimicrobial activity against Candida albicans
Assay type: functional
Square brackets hold non-standard residues; d marks the D form. Peptide text beside a SMILES is read from it. Orn = NCCC[C@H](N)C(=O)O

MOLECULE	MIC
CC(C)C[C@@H]1NC(=O)[C@H](CCCN)NC(=O)[C@H](C(C)C)NC(=O)[C@H](Cc2ccc(O)cc2)NC(=O)[C@H](CC(=O)O)NC(=O)[C@H](CC(N)=O)NC(=O)[C@@H](Cc2ccccc2)NC(=O)[C@H](Cc2ccccc2)NC(=O)[C@@H]2CCCN2C(=O)[C@@H](Cc2ccc(O)cc2)NC1=O	8 µg/mL
CC(C)C[C@@H]1NC(=O)[C@H](CCCN)NC(=O)[C@H](C(C)C)NC(=O)[C@H](Cc2c[nH]c3ccccc23)NC(=O)[C@H](CC(=O)O)NC(=O)[C@H](CC(N)=O)NC(=O)[C@@H](Cc2ccccc2)NC(=O)[C@H](Cc2c[nH]c3ccccc23)NC(=O)[C@@H]2CCCN2C(=O)[C@@H](Cc2ccc(O)cc2)NC1=O [LOLOATIN C] (cyclo(DWV[Orn]L[dY]PW[dF]N))	8 µg/mL
CC(C)C[C@@H]1NC(=O)[C@H](CCCN)NC(=O)[C@H](C(C)C)NC(=O)[C@H](Cc2c[nH]c3ccccc23)NC(=O)[C@H](CC(=O)O)NC(=O)[C@H](CC(N)=O)NC(=O)[C@@H](Cc2ccccc2)NC(=O)[C@H](Cc2ccccc2)NC(=O)[C@@H]2C[C@@H](O)CN2C(=O)[C@@H](Cc2ccc(O)cc2)NC1=O	16 µg/mL

Indicate its recorded MIC; the molecule in question is CC(C)C[C@@H]1NC(=O)[C@H](CCCN)NC(=O)[C@H](C(C)C)NC(=O)[C@H](Cc2c[nH]c3ccccc23)NC(=O)[C@H](CC(=O)O)NC(=O)[C@H](CC(N)=O)NC(=O)[C@@H](Cc2ccccc2)NC(=O)[C@H](Cc2ccccc2)NC(=O)[C@@H]2CCCN2C(=O)[C@@H](Cc2ccc(O)cc2)NC1=O
8 µg/mL

###

Test system: Enterococcus faecium
Assay: Antimicrobial activity against Enterococcus faecium
Format: functional
Square brackets hold non-standard residues; d marks the D form. Peptide text beside a SMILES is read from it. Orn = NCCC[C@H](N)C(=O)O
VALUE_TYPE: MIC (mg/L)
Answers are plain numbers, in mg/L.

MOLECULE	RESULT_UNITS	MIC
CC(C)C[C@@H]1NC(=O)[C@H](CCCN)NC(=O)[C@H](C(C)C)NC(=O)[C@H](Cc2c[nH]c3ccccc23)NC(=O)[C@H](CC(=O)O)NC(=O)[C@H](CC(N)=O)NC(=O)[C@@H](Cc2ccccc2)NC(=O)[C@H](Cc2ccccc2)NC(=O)[C@@H]2CCCN2C(=O)[C@@H](Cc2ccc(O)cc2)NC1=O [LOLOATIN B]	mg/L	2
CC(C)C[C@@H]1NC(=O)[C@H](CCCN)NC(=O)[C@H](C(C)C)NC(=O)[C@H](Cc2ccc(O)cc2)NC(=O)[C@H](CC(=O)O)NC(=O)[C@H](CC(N)=O)NC(=O)[C@@H](Cc2ccccc2)NC(=O)[C@H](Cc2ccccc2)NC(=O)[C@@H]2CCCN2C(=O)[C@@H](Cc2ccc(O)cc2)NC1=O [LOLOATIN A]	mg/L	4

Please find the next molecule below.
Item CC(C)C[C@@H]1NC(=O)[C@H](CCCN)NC(=O)[C@H](C(C)C)NC(=O)[C@H](Cc2c[nH]c3ccccc23)NC(=O)[C@H](CC(=O)O)NC(=O)[C@H](CC(N)=O)NC(=O)[C@@H](Cc2ccccc2)NC(=O)[C@H](Cc2c[nH]c3ccccc23)NC(=O)[C@@H]2CCCN2C(=O)[C@@H](Cc2ccc(O)cc2)NC1=O [LOLOATIN C] (cyclo(DWV[Orn]L[dY]PW[dF]N)) : provide MIC
2
